// provenance: patent US11578084B2

target: human recombinant dopamine D3 receptor (Homo sapiens (Human), UniProt P35462); assay: Test of binding inhibition for dopamine D3 receptor ([3H]-Methylspiperone SPA); details: Jump-In HEK cell membranes, 2 nM [3H]-Methylspiperone, 120 min at 25° C.; read-out: hD3_Ki
Sequence (P35462 whole entry): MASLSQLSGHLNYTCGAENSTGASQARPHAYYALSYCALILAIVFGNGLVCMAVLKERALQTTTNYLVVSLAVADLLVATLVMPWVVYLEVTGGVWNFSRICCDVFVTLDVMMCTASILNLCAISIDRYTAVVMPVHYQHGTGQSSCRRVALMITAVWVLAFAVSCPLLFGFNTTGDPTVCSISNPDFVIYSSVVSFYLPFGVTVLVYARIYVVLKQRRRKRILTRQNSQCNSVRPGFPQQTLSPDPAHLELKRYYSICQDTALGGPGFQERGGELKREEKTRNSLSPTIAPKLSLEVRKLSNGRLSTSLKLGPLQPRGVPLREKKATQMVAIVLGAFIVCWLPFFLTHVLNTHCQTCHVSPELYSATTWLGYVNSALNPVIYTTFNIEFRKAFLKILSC
Doc: threshold 0.2 nM (exclusive). Items with Ki beneath it return T; others return F.

In: Lab log: compare recorded Ki with 0.2 nM; is it strictly lower for Cc1ncc(CC(=O)N[C@H]2CC[C@](F)(CCN3CCc4nc(OCC(F)(F)F)sc4CC3)CC2)cn1 ?
Out: F

In: Lab log: compare recorded Ki with 0.2 nM; is it strictly lower for Cc1nc(CC(=O)N[C@H]2CC[C@](F)(CCN3CCc4ccc(OCC(C)(F)F)nc4CC3)CC2)no1 ?
Out: T

In: Lab log: compare recorded Ki with 0.2 nM; is it strictly lower for Cn1cc(OCC(=O)N[C@H]2CC[C@H](CCN3CCc4ccc(CCC(F)(F)F)nc4CC3)CC2)cn1 ?
Out: F

In: Lab log: compare recorded Ki with 0.2 nM; is it strictly lower for Cc1nc(CC(=O)N[C@H]2CC[C@H](CCN3CCc4ccc(CCC(F)(F)F)nc4CC3)CC2)n(C)n1 ?
Out: F

In: Lab log: compare recorded Ki with 0.2 nM; is it strictly lower for Cn1cc(CC(=O)N[C@H]2CC[C@H](CCN3CCc4nc(OCC(F)F)sc4CC3)CC2)c(F)n1 ?
Out: T

In: Lab log: compare recorded Ki with 0.2 nM; is it strictly lower for Cn1ncc(CC(=O)N[C@H]2CC[C@H](CCN3CCc4nc(OCC(F)F)sc4CC3)CC2)c1F ?
Out: F

In: Lab log: compare recorded Ki with 0.2 nM; is it strictly lower for CC(C)Oc1ccc2c(n1)CCN(CC[C@H]1CC[C@H](NC(=O)c3cnn4ccccc34)CC1)CC2 ?
Out: F

In: Lab log: compare recorded Ki with 0.2 nM; is it strictly lower for Cn1cc2c(C(=O)N[C@H]3CC[C@H](CCN4CCc5ccc(OC6CCC6)nc5CC4)CC3)cccc2n1 ?
Out: F

In: Lab log: compare recorded Ki with 0.2 nM; is it strictly lower for Cn1ncc(CC(=O)N[C@H]2CC[C@H](CCN3CCc4nc(OCC(C)(F)F)sc4CC3)CC2)c1F ?
Out: T

In: Lab log: compare recorded Ki with 0.2 nM; is it strictly lower for Cc1nnc(CC(=O)N[C@H]2CC[C@H](CCN3CCc4sc(C5CC(F)(F)C5)nc4C3)OC2)o1 ?
Out: F

In: Lab log: compare recorded Ki with 0.2 nM; is it strictly lower for Cc1ncccc1C(=O)N[C@H]1CC[C@](F)(CCN2CCc3nc(OCC(C)(F)F)sc3CC2)CC1 ?
Out: F

In: Lab log: compare recorded Ki with 0.2 nM; is it strictly lower for Cc1ncccc1C(=O)N[C@H]1CC[C@H](CCN2CCc3nc(OCCC(F)(F)F)sc3CC2)CC1 ?
Out: F

In: Lab log: compare recorded Ki with 0.2 nM; is it strictly lower for O=C(N[C@H]1CC[C@H](CCN2CCc3nc(OCC(F)F)sc3CC2)CC1)c1cccnc1C(F)F ?
Out: F

In: Lab log: compare recorded Ki with 0.2 nM; is it strictly lower for Cc1nnc(CC(=O)N[C@H]2CC[C@](F)(CCN3CCc4nc(OCCC(F)(F)F)sc4CC3)CC2)s1 ?
Out: F
